Tested on: ATP;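 note: ATP exposure 15 min at 22 °C before imaging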
Method Summary: switch fluorescence ratio, 500 uM ATP over buffer (Cy3 cluster intensity, sum of 5 cycles each) (fold (ratio)); higher = stronger signal-on switching upon ATP binding; sequences stand for … in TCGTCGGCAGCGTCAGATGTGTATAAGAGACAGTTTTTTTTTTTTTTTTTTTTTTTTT…TC
Condition Info: aptamer strand: ATP DNA aptamer (quencher-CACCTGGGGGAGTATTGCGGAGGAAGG + anchor), 100 nM annealed; ATP concentration: 500 uM

Chain	switch fluorescence ratio
CATCGTGTTA	1.01
CGATTTTCAT	0.988
ATGGCAGGAT	1
AAAAGTCTGA	1.01
TTGCCGGCTA	1.04
TCTGAACGGT	0.983
AATGGGTGAA	0.975
TCACAGTTGG	1.03
AAGTCAGCGA	1.02
TTGGGTCCTT	0.993
TCAGCGAATT	0.98
TCGACATTAT	1.03
TTGCATATAG	1.3
AAGCGAGCCG	1.02
CTAGTTGGTC	0.981
GCCATGTTTT	0.965
GCTTGGATGT	1.02
GAAATGGAAG	1
GAAACTAATT	0.997
TTTTTATGAA	1.01
ATAGATTAGT	0.996
CAGGCGAGTG	0.96
GCAGGAATTC	1.05
AGGTTGCGAG	0.989
ATGTTCTGGG	1.04
ATCGTGAGGC	1.05
CGAGTATGAA	0.989
AAGGGCGGGT	1.03
GATAGGGGCG	0.998
AGCCCGTCGT	0.99
ATATCAATGT	1
TGTCAGTTAT	0.979
GAGGGGCTGT	0.981
GGTTTAGGCA	0.999
CGGGCGGTCG	0.975
GGGGTCAGTG	0.998
AGGGGGCGGG	1.03
CATGCGGTTG	0.978
TTAAGATGTT	0.993
GGTTAGTATT	0.987
AATATGTAAT	0.989
TTTTAAGCAA	1.53
TCGGGAGCCT	0.973
CAGTTAGGGG	1.02
GTGATGGGAC	1.02
CGAAAGTAGC	1.01
TATTGGTCGT	0.968
CAGTAACTGT	1.02
GGCCGAATGG	1.03
CACTGTAACC	1.19
CGATGGGGAC	1.14
TAAAATTATA	1.02
TGGGCGGGA	1
GGTAGTACGG	0.983
CTAGACCCGG	0.988
AAAGGGGGAG	0.997
GGATTATCGG	0.976
TTTGAGGGGT	1.03
TTGAGAATT	1.02
TTGATATGGG	1.03
TGAATAGGGT	1.03
CATGTTTGTG	0.982
ATGAGATCAG	1
AGATGGGGCG	0.955
TTTGGGGTTG	0.999
TGAAAAGGGG	0.998
